Tested on: Symmetric Di-methyl Arginine (SDMA) signal (PRMT5 inhibition) in HCT116 MTAP-deleted cells
Assay: Symmetric di-methyl arginine image-based high content screen assay (SDMA assay), HCT116 MTAP-deleted
Type: cell-based
Settings: Homo sapiens, HCT-116, HCT116 MTAP-deleted, class symbols
pEC50: −log10 of the molar value.
Each entry below lists one item and its recorded pEC50 value.

Illustrative cases are given below, each with its answer.
>>> endpoint_result("CN(C(=O)c1ccc2nc(N)c3cncn3c2c1)[C@@H]1COc2cc(Cl)ccc21 [Ff-566]")
"8.30 to 9.00"
>>> endpoint_result("CN(Cc1ccc(-c2cnn(C(F)(F)F)c2)cc1F)C(=O)c1cc2c(cc1F)nc(N)c1cncn12 [Ff-24]")
"8.30 to 9.00"
>>> endpoint_result("COc1ccc2c(c1)CO[C@H]1CCCN(C(=O)c3cc4c(cc3F)nc(N)c3cncn34)[C@@H]21 (racemic) [Ff-44]")
"8.30 to 9.00"

Please fill in: pEC50 reported for C[C@@H]1CN(C(=O)c2cc3c(cc2F)nc(N)c2cncn23)[C@H]2c3ccc(OC(F)(F)F)cc3C[C@H]2O1 (single isomer, unassigned) [Ff-183] = ≥ 9.00

Please fill in: pEC50 reported for Cc1ncn2c1c(N)nc1cnc(C(=O)N3C[C@H](C)C[C@@H]4Oc5cc(OC(F)(F)F)ccc5[C@@H]43)cc12 [Ff-619] = 8.30 to 9.00

Please fill in: pEC50 reported for Nc1nc2cc(F)c(C(=O)N(Cc3ccc(C(F)(F)F)cc3F)C34CC(C3)C4)cc2n2cncc12 [Ff-210] = ≥ 9.00

* * *

Experiment: PK data (IV/PO) in Beagle dog
Details: in vivo, IV 0.5 mg/Kg
Property: half-life (h)

>>> endpoint_result("C[C@H]1CN(C(=O)c2cc3c(cc2F)nc(N)c2cncn23)[C@H]2c3ccc(C(F)(F)F)cc3C[C@H]2O1 (single isomer, unassigned)")
7.9
>>> endpoint_result("Nc1nc2cc(F)c(C(=O)N3CCC[C@@H]4Oc5cc(C(F)(F)F)ccc5[C@@H]43)cc2n2cncc12")
8.7

* * *

System: HCT116 MTAP-deleted cell lines
Experiment: Cell viability assay (CellTiter-Glo, 7 days), HCT116 MTAP-deleted
Format: cell-based
Details: Homo sapiens, HCT-116; cell viability assay, HCT116 MTAP-deleted; class symbols; read-out: CC50
Property: CC50

Illustrative cases are given below, each with its answer.
>>> endpoint_result("C[C@H](c1ncccn1)N(Cc1ccc(C(F)(F)F)cn1)C(=O)c1cc2c(cc1Cl)nc(N)n1cncc21")
"100 to 1000 nM"
>>> endpoint_result("CN(C(=O)c1cc2c(cc1F)nc(N)c1cncn12)C(c1ccc(C(F)(F)F)cn1)C(F)F (stereo not drawn)")
"100 to 1000 nM"
>>> endpoint_result("C[C@H]1C[C@@H]2Oc3cc(C(F)(F)F)ccc3[C@@H]2N(C(=O)c2ccc3nc(N)c4cncn4c3c2)C1 (single isomer, unassigned)")
"< 100 nM"
>>> endpoint_result("Cc1ncc2c(N)nc3cnc(C(=O)N4C[C@H](C)O[C@@H]5Cc6cc(Cl)ccc6[C@@H]54)cc3n12 (single isomer, unassigned)")
"100 to 1000 nM"
>>> endpoint_result("Nc1nc2ccc(C(=O)N(Cc3ccc(C(F)(F)F)cc3F)C3COC3)cc2n2cncc12")
"100 to 1000 nM"
>>> endpoint_result("CN(C(=O)c1cc2c(cc1F)nc(N)c1cncn12)[C@@H]1COc2cc(-n3cc(C(F)(F)F)cn3)ccc21")
"< 100 nM"
>>> endpoint_result("Cc1ncn2c1c(N)nc1cnc(C(=O)N3[C@@H]4c5ccc(C(F)(F)F)cc5O[C@@H]4CC[C@@H]3C)cc12 (single isomer, unassigned)")
"100 to 1000 nM"
>>> endpoint_result("CN(Cc1ccc(C(F)(F)F)cc1F)C(=O)c1ccc2nc(N)c3cncn3c2c1")
"100 to 1000 nM"
>>> endpoint_result("CN(C(=O)c1cc2c(cc1F)nc(N)c1cncn12)C1COc2cc(Br)c(Cl)cc21 (stereo not drawn)")
"< 100 nM"
>>> endpoint_result("CCN(C(=O)c1cc2c(cc1F)nc(N)c1cncn12)[C@@H](C)c1ccc(C(F)(F)F)cn1")
"< 100 nM"

Please fill in: CC50 reported for `Cc1ncc2c(N)nc3ccc(C(=O)N4CCC[C@@H]5Oc6cc(OC(F)(F)F)ccc6[C@@H]54)cc3n12` = < 100 nM

Please fill in: CC50 reported for `Cc1ncc2c(N)nc3cc(F)c(C(=O)N4CC[C@H]5C[C@@H]4c4ccc(C(F)(F)F)nc4O5)cc3n12` = < 100 nM

Please fill in: CC50 reported for `Cc1ncc2c(N)nc3cc(F)c(C(=O)N(C)[C@@H]4COc5cc(OC(F)(F)F)ccc54)cc3n12` = < 100 nM

Please fill in: CC50 reported for `CN(C(=O)c1ccc2nc(N)c3cncn3c2c1)[C@@H]1COc2cc(C#CC3(C)COC3)ccc21` = < 100 nM

Please fill in: CC50 reported for CN(C(=O)c1cc2c(cc1F)nc(N)c1cncn12)[C@@H]1COc2cc(C3CCOC3)ccc21 (mixture of isomers) = < 100 nM

* * *

Test system: HCT116 MTAP-deleted cell lines
Assay: Cell viability assay (CellTiter-Glo, 7 days), HCT116 MTAP-deleted
Assay type: cell-based
Details: Homo sapiens, HCT-116; cell viability assay, HCT116 MTAP-deleted; class symbols; read-out: CC50
Property: CC50

Illustrative cases are given below, each with its answer.
>>> endpoint_result("CN(C(=O)c1cc2c(cc1F)nc(N)c1cncn12)[C@@H]1COCc2cc(C#CC3(C)COC3)ccc21")
"< 100 nM"
>>> endpoint_result("CC(C)N(Cc1ccc(-c2cccc(OC(F)F)c2)cc1F)C(=O)c1cc2c(cc1F)nc(N)c1cncn12")
"< 100 nM"
>>> endpoint_result("Nc1nc2ccc(C(=O)N(Cc3cc4ccccn4n3)C34CC(C3)C4)cc2c2cncn12")
"> 1000 nM"
>>> endpoint_result("Cc1ncn2c1c(N)nc1cnc(C(=O)N3[C@H](C)CC[C@@H]4Oc5cc(C(F)(F)F)ccc5[C@@H]43)cc12 (single isomer, unassigned)")
"< 100 nM"
>>> endpoint_result("CN(C(=O)c1cc2c(cc1F)nc(N)c1c(Br)ncn12)[C@@H]1COc2cc(C(F)(F)F)ccc21 (single isomer, unassigned)")
"100 to 1000 nM"
>>> endpoint_result("CN(C(=O)c1ccc2nc(N)c3cncn3c2c1)[C@@H]1COc2cc(C34CC(C(F)F)(C3)C4)ccc21")
"< 100 nM"
>>> endpoint_result("Cc1ncn2c1c(N)nc1ccc(C(=O)N3C[C@@H](C)O[C@@H]4Cc5cc(C(F)(F)F)ccc5[C@@H]43)cc12")
"< 100 nM"
>>> endpoint_result("Nc1nc2cnc(C(=O)N3C[C@@H](F)C[C@@H]4Oc5cc(OC(F)(F)F)ccc5[C@@H]43)cc2n2cncc12")
"< 100 nM"

Let us examine a further case.
Tested system HCT116 MTAP-deleted cell lines; CC50 recorded for `Nc1nc2cc(F)c(C(=O)N3C[C@@H](F)C[C@@H]4Oc5cc(OC(F)(F)F)ccc5[C@@H]43)cc2n2cncc12` was < 100 nM

* * *

Test: PK data (IV/PO) in Beagle dog
Conditions: in vivo, IV 0.25 mg/Kg, read-out: Observed CL (converted)
Property: clearance (mL/min/kg)

>>> endpoint_result("Nc1nc2cnc(C(=O)N3CCC[C@@H]4Oc5cc(C(F)(F)F)cc(F)c5[C@@H]43)cc2n2cncc12 (single isomer, unassigned)")
6.33

1: Nc1nc2cc(F)c(C(=O)N3CCC[C@@H]4Oc5cc(C(F)(F)F)ccc5[C@@H]43)cc2n2cncc12
2: Nc1nc2cnc(C(=O)N3CCC[C@@H]4Oc5cc(OC(F)(F)F)cc(F)c5[C@@H]43)cc2n2cncc12 (single isomer, unassigned)
Task item: Problem: Given the entries 1 and 2 , determine which has the lower reported clearance. Lab log: write the label of the selected item as the result.
Reply: 2

* * *

Experiment: Hepatocyte stability assay, human
Assay type: in vitro ADME
Conditions: human hepatocytes, 1 μM
Property: Human Predicted Hepatocyte CL (L/h/kg)

Illustrative cases are given below, each with its answer.
>>> endpoint_result("Nc1nc2cnc(C(=O)N3CC[C@H]4C[C@@H]3c3ccc(C(F)(F)F)c(F)c3O4)cc2n2cncc12")
0.16
>>> endpoint_result("C[C@H]1CN(C(=O)c2cc3c(cc2F)nc(N)c2cncn23)[C@H]2c3ccc(C(F)(F)F)cc3C[C@H]2O1 (single isomer, unassigned)")
0.18
>>> endpoint_result("Cc1ncc2c(N)nc3cnc(C(=O)N4CCC[C@@H]5Oc6cc(OC(F)(F)F)ccc6[C@@H]54)cc3n12")
0.3
>>> endpoint_result("Nc1nc2cnc(C(=O)N3CC[C@H]4C[C@@H]3c3ccc(OC(F)(F)F)cc3O4)cc2n2cncc12")
0.29
>>> endpoint_result("Nc1nc2cnc(C(=O)N3CC[C@H]4C[C@@H]3c3c(F)cc(C(F)(F)F)cc3O4)cc2n2cncc12 (single isomer, unassigned)")
0.21

P: Nc1nc2cnc(C(=O)N3CCC[C@@H]4Oc5cc(OC(F)(F)F)ccc5[C@@H]43)cc2n2cncc12
Q: Nc1nc2cc(F)c(C(=O)N3CC[C@H]4C[C@@H]3c3ccc(C(F)(F)F)nc3O4)cc2n2cncc12
Task item: Problem: Given the entries P and Q , determine which has the lower reported Human Predicted Hepatocyte CL. Lab log: write the label of the selected item as the result.
Reply: Q
(Q: 0.05 L/h/kg, P: 0.22 L/h/kg)
